- protocol_details: Growth inhibition of HUVEC cells after 72 hrs by WST-1 assay
- Assay type: cell-based
- protocol_conditions: human
experimental_endpoint: GI50 at 72 h

# compound, GI50 at 72 h
records = [
    ("Nc1ccn([C@@H]2O[C@H](CO)[C@@H](O)[C@@H]2O)c(=O)n1 [CYTARABINE]", "0.23 µM"),
    ("C/C=C/C1=CC2=CC(=O)[C@@](C)(O)[C@@H](OC(=O)c3c(C)cc(O)cc3O)[C@@H]2CO1", "> 200 µM"),
    ("C/C=C/C1=CC2=CC(=O)[C@@](C)(OC(=O)c3c(C)cc(O)cc3O)[C@@H](O)[C@@H]2CO1 [PINOPHILIN A]", "> 200 µM"),
]

Measured GI50 at 72 h of Cc1cc(O)cc(O)c1C(=O)O[C@H]1[C@@H]2COC(/C=C/CO)=CC2=CC(=O)[C@@]1(C)O [PINOPHILIN B] : > 200 µM

---

- protocol_details: Non-competitive inhibition of calf DNA polymerase alpha using ploy(dA)/oligo(dT)18 as substrate by Dixon plot analysis
- Parameters: species or system Bos taurus
experimental_endpoint: Ki
Answer with the value and then the unit.

molecule "C/C=C/C1=CC2=CC(=O)[C@@](C)(OC(=O)c3c(C)cc(O)cc3O)[C@@H](O)[C@@H]2CO1" , Ki observed: 13.8 µM

---

Known pIC50 of a selection of compounds
- target_under_test: UniProt Q72547
pIC50: −log10 of the molar value.

A selection of reference data follows.
# cpd_smiles, assay_value
records = [
    ("C/C=C/C1=CC2=CC(=O)[C@@](C)(O)[C@@H](OC(=O)c3c(C)cc(O)cc3O)[C@@H]2CO1", "< 3.70"),
    ("Cc1cc(O)cc(O)c1C(=O)O[C@H]1[C@@H]2COC(/C=C/CO)=CC2=CC(=O)[C@@]1(C)O", "< 3.70"),
]

Read the next record carefully.
// assay UniProt Q72547, entry "C/C=C/C1=CC2=CC(=O)[C@@](C)(OC(=O)c3c(C)cc(O)cc3O)[C@@H](O)[C@@H]2CO1" , pIC50 value = < 3.70

---

Overview of recorded pIC50 for various compounds
Target protein (sequence): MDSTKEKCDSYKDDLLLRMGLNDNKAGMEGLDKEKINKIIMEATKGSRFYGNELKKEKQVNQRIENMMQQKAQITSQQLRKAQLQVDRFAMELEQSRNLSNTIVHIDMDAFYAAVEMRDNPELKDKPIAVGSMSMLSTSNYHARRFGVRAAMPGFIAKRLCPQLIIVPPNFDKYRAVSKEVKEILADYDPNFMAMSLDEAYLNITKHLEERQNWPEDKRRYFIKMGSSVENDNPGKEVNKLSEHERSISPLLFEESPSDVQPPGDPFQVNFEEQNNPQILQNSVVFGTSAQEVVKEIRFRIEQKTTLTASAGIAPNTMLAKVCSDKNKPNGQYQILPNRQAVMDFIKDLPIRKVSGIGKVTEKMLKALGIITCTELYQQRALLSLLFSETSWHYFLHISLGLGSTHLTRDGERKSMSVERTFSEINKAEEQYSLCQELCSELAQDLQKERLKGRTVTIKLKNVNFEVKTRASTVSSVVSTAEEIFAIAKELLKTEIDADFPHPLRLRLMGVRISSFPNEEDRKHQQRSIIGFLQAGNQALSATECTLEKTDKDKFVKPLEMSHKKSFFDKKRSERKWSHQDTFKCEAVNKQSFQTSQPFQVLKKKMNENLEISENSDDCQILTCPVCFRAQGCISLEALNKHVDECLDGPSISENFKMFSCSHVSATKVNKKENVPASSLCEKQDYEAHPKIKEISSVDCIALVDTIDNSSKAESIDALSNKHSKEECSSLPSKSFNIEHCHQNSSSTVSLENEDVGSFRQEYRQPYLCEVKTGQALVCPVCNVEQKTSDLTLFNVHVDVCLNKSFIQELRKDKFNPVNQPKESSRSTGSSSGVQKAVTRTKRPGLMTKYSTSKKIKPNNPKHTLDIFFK
Answer as the number alone; pIC50 is minus log10 of concentration in mol/L.

Solved cases below.
# compound, assay_value
measured = [
    ("Cc1cc(O)cc(O)c1C(=O)O[C@H]1[C@@H]2COC(/C=C/CO)=CC2=CC(=O)[C@@]1(C)O [PINOPHILIN B]", 4.05),
    ("C/C=C/C1=CC2=CC(=O)[C@@](C)(OC(=O)c3c(C)cc(O)cc3O)[C@@H](O)[C@@H]2CO1 [PINOPHILIN A]", 4.31),
]

Briefly, pIC50 measured for "C/C=C/C1=CC2=CC(=O)[C@@](C)(O)[C@@H](OC(=O)c3c(C)cc(O)cc3O)[C@@H]2CO1" : 4.22

---

Consider compounds characterized by their IC50 with DNA nucleotidylexotransferase (Bos taurus, UniProt P06526).
Sequence (P06526 whole entry): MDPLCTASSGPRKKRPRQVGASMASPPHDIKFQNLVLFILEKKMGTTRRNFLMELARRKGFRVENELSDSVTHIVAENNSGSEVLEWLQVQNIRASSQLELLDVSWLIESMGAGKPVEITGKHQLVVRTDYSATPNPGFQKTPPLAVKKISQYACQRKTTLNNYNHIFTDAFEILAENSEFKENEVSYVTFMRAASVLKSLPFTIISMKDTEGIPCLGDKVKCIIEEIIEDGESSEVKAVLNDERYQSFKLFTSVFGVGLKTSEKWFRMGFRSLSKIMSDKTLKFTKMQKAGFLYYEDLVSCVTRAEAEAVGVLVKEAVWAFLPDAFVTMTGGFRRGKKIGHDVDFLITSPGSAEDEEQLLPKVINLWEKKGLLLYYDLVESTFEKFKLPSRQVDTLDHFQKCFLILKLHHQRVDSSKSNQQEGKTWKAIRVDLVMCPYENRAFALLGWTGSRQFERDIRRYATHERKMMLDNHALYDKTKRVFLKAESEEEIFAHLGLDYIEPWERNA

Observe how each entry below is paired with its result.
# cpd_smiles, experimental_endpoint, assay_value
data = [
    ("Cc1cc(O)cc(O)c1C(=O)O[C@H]1[C@@H]2COC(/C=C/CO)=CC2=CC(=O)[C@@]1(C)O", "IC50", "> 200 µM"),
    ("C/C=C/C1=CC2=CC(=O)[C@@](C)(O)[C@@H](OC(=O)c3c(C)cc(O)cc3O)[C@@H]2CO1", "IC50", "> 200 µM"),
]

Lab note: next compound to report on.
"C/C=C/C1=CC2=CC(=O)[C@@](C)(OC(=O)c3c(C)cc(O)cc3O)[C@@H](O)[C@@H]2CO1" yielded IC50 of > 200 µM

---

- protocol_details: Inhibition of human DNA polymerase epsilon assessed as inhibition of incorporation of dTTP into poly(dA)/oligo(dT)18 after 60 mins
Measured pIC50 by item
The value called pIC50 is obtained by taking minus log10 of the concentration in mol/L.

Example results:
# compound, pIC50
data = [
    ("C/C=C/C1=CC2=CC(=O)[C@@](C)(O)[C@@H](OC(=O)c3c(C)cc(O)cc3O)[C@@H]2CO1", 4.18),
    ("Cc1cc(O)cc(O)c1C(=O)O[C@H]1[C@@H]2COC(/C=C/CO)=CC2=CC(=O)[C@@]1(C)O [PINOPHILIN B]", 4.03),
]

With those in mind, consider the next compound.
Per the record, C/C=C/C1=CC2=CC(=O)[C@@](C)(OC(=O)c3c(C)cc(O)cc3O)[C@@H](O)[C@@H]2CO1 [PINOPHILIN A] has pIC50 of 4.28

---

# IC50 annotations
- target_under_test: DNA polymerase lambda (Homo sapiens, UniProt Q9UGP5)
- Sequence (Q9UGP5 whole entry): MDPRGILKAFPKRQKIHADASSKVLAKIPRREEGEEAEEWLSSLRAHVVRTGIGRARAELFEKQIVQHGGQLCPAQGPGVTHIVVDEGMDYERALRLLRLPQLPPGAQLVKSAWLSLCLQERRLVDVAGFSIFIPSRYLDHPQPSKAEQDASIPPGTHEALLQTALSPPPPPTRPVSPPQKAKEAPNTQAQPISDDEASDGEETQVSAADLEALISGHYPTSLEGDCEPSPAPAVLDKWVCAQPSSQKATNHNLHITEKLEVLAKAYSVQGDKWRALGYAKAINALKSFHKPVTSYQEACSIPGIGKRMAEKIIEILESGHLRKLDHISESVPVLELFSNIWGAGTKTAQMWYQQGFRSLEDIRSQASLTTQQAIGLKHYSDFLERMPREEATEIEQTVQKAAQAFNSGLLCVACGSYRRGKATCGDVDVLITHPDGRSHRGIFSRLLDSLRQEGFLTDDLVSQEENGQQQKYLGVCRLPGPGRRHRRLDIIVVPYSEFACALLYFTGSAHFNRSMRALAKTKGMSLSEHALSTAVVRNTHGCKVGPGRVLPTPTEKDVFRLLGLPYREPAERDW
- protocol_details: Inhibition of human recombinant His-tagged DNA polymerase lambda expressed in Escherichia coli assessed as inhibition of incorporation of dTTP into poly(dA)/oligo(dT)18 after 60 mins

# cpd_smiles, IC50
records = [
    ("C/C=C/C1=CC2=CC(=O)[C@@](C)(O)[C@@H](OC(=O)c3c(C)cc(O)cc3O)[C@@H]2CO1", "> 200 µM"),
]

Result for "Cc1cc(O)cc(O)c1C(=O)O[C@H]1[C@@H]2COC(/C=C/CO)=CC2=CC(=O)[C@@]1(C)O" , tested on DNA polymerase lambda (Homo sapiens, UniProt Q9UGP5), IC50: > 200 µM

Form field IC50 for item "C/C=C/C1=CC2=CC(=O)[C@@](C)(OC(=O)c3c(C)cc(O)cc3O)[C@@H](O)[C@@H]2CO1" on DNA polymerase lambda (Homo sapiens, UniProt Q9UGP5): > 200 µM

---

- Test system: A549
- protocol_details: Growth inhibition of human A549 cells after 24 hrs by WST-1 assay
- Format: functional
- protocol_conditions: A549, 24 h
Quick reference: GI50 of the listed items.
Field format: number, assumed µM, no unit text.

# cpd_smiles, GI50 [µM]
data = [
    ("C/C=C/C1=CC2=CC(=O)[C@@](C)(OC(=O)c3c(C)cc(O)cc3O)[C@@H](O)[C@@H]2CO1", 52.5),
]

Just so you know, measured GI50 for "Nc1ccn([C@@H]2O[C@H](CO)[C@@H](O)[C@@H]2O)c(=O)n1" came out at 0.2

Record "C/C=C/C1=CC2=CC(=O)[C@@](C)(O)[C@@H](OC(=O)c3c(C)cc(O)cc3O)[C@@H]2CO1" , field GI50: 65.7

The measured GI50 associated with "Cc1cc(O)cc(O)c1C(=O)O[C@H]1[C@@H]2COC(/C=C/CO)=CC2=CC(=O)[C@@]1(C)O" reads 93.1

Source listed as ChEMBL document CHEMBL2010709.
